The following binders are listed with their measured kon values.
target: T1, human PD-L1 ECD-His (human, UniProt Q9NZQ7 19-238); assay: SPR, hPD-L1-His, PL3 variants
T1 construct: extracellular domain; Analyte in all SPR and BLI runs; also called hPD-L1_ECD-His; hPD-L1 ECD-His; not shown: His tag
T1 sequence (Q9NZQ7 19-238): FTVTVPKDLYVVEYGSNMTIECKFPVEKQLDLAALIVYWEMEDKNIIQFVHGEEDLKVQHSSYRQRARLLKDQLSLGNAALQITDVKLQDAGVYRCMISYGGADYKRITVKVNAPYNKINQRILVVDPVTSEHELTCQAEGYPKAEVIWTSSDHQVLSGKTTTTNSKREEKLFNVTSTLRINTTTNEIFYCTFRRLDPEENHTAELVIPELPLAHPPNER
Give the number; M⁻¹ s⁻¹ is assumed, so skip it.

PL3#7 IgG1 (antibody, V domains shown, Human IgG1) VH: QVQLVQSGAEVKKPGSSVKVSCKASGGTFSSYPISWVRQAPGQGLEWIGRIIPILGIANYAQKFQGRVTITADKSTSTAYMELSSLRSEDTAVYYCARSRDGYAFGAFDIWGQGTLVTVSS VL: QSVVTQPPPVSGAPGQRVTISCTGSSSNIGAGYDVHWYQQLPGTAPKLLIYGNSNRPSGVPDRFSGSKSGTSASLAITGLQAEDEADYYCQTYDSSLSARVVFGGGTKLTVL | 997000

Looking up PL3#1 mtIgG1 (N297A) (antibody, V domains shown, N297A mutant human IgG1) VH: QVQLVQSGAEVKKPGSSVKVSCKASGGTFSSYRISWVRQAPGQGLEWMGRIIPILGIANYAQKFQGRVTITADKSTSTAYMELSSLRSEDTAVYYCARSRDGYSVGAFDSWGQGTLVTVSS VL: QSVVTQPPPVSGAPGQRVTISCTGSSSNIGAGYDVHWYQQLPGTAPKLLIYGNSRRPSGVPDRFSGSKSGTSASLAITGLQAEDEADYYCQTYDSSLSRPVVFGGGTKLTVL , I found its kon recorded as 1.1e+06

Looking up PL3#7 IgG4 (antibody, V domains shown, Human IgG4) VH: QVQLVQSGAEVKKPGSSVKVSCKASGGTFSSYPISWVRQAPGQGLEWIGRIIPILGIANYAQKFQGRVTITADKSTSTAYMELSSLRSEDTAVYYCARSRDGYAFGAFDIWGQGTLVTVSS VL: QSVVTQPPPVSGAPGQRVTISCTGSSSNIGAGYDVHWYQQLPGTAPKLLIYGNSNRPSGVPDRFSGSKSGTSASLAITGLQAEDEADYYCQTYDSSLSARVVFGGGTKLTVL , I found its kon recorded as 1.14e+06
